# credit: PubChem BioAssay

- TARGET_UNDER_TEST: Left-right determination factor 2 (Homo sapiens)
- ASSAY_PROTOCOL: LEFTY2 binders on small-molecule microarrays, primary screen, biochemical, small-molecule microarray, 635 nm fluorescence scan (AID 1110)
- TEST_SETTINGS: LEFTY2 binding, higher = more signal

{"columns": ["MOLECULE", "composite z-score"],
 "data": [
  ["CC(C)CNC(=O)[C@@]1(C)c2ccccc2C(=O)N(Cc2cc(F)cc(C(F)(F)F)c2)[C@H]1c1ccc(CO)cc1", 0.0867],
  ["COCCOC(=O)N1C(=O)[C@@]2(c3cc(C#CC4=CCCCC4)ccc31)[C@H](C(=O)N1CCc3cc(OC)c(OC)cc3C1)[C@H]1C(=O)O[C@H](c3ccccc3)[C@H](c3ccccc3)N1[C@@H]2c1ccc(O)cc1", 0.761],
  ["O=C1O[C@H](c2ccccc2)[C@H](c2ccccc2)N2[C@H]1[C@@H](C(=O)NC[C@H](O)c1ccccc1)[C@]1(C(=O)Nc3ccc(C#CCCO)cc31)[C@H]2c1ccccc1OCCO", -0.66],
  ["C=CCC(OC(C)=O)[C@@H]1[C@@H](N(Cc2cccc3ccccc23)C(=O)c2cccc3ccccc23)c2cc(OCCCO)ccc2N1C(=O)Cc1ccc2ccccc2c1 (stereo partly specified)", -0.277],
  ["COC(=O)[C@@H]1N=C(c2ccc(OCCCO)cc2)O[C@@H]1c1ccccc1CN=[N+]=[N-]", -0.769],
  ["CCOC(=O)C[C@H]1[C@H](OC(=O)c2ccc(-c3ccccc3)cc2)[C@@H](NC(=O)c2ccc3ccccc3c2)c2cc(OCCCO)ccc2N1C(=O)c1ccccc1", 0.564],
  ["CC(C)CNC(=O)[C@@H]1c2ccccc2C(=O)N(C2Cc3ccccc3C2)[C@H]1c1ccc(CO)cc1", -0.325],
  ["COc1ccc([Si](C)(C)[C@@H]2[C@@H](CC(=O)N(CCO)Cc3ccccc3)O[C@]3(C(=O)N(Cc4ccc(N5CCC5=O)cc4)c4ccccc43)[C@H]2C)cc1", 1.14],
  ["Cc1ccc(S[C@]2(C(=O)NCCCN(C)C)CC(=O)N(Cc3ccccc3Cl)[C@@H]2c2ccc(CO)cc2I)cc1", -1.7],
  ["COCCOC(=O)N1C(=O)[C@@]2(c3cc(C#CCCO)ccc31)[C@H](c1ccc(O)cc1)N1[C@H](c3ccccc3)[C@H](c3ccccc3)OC(=O)[C@H]1[C@@H]2C(=O)N1CCc2cc(OC)c(OC)cc2C1", 1.14],
  ["Cc1c(NC(=O)/C(C#N)=C/c2ccc(Cl)cc2)c(=O)n(-c2ccccc2)n1C", 0.119]
]}

###

- ASSAY_PROTOCOL: adipocyte viability effects, profiling panel, cell-based, 3T3-L1 adipocytes, calcein-AM fluorescence, 48 h, basal (AID 1163); note: test concentration not given here
- TEST_SETTINGS: 3T3-L1 adipocytes viability, higher = more signal

{"columns": ["COMPOUND", "z-score"],
 "data": [
  ["C=CCC(OC(C)=O)[C@@H]1[C@@H](N(Cc2cccc3ccccc23)C(=O)c2ccc(-c3ccccc3)cc2)c2cc(OCCCO)ccc2N1C(=O)c1ccc2ccccc2n1 (some centres undefined)", 0.587],
  ["Cc1c(-c2ccc(-c3ccc(Cl)c(Cl)c3)o2)nc(-c2ccccc2)c2c1CO[Si]2(C(C)C)C(C)C", -0.527],
  ["COCC(=C=CC[C@@H](O)c1ccc(OCCO)cc1)C[C@@H](O)COCc1ccccc1", 0.657],
  ["O=C1N(Cc2ccccc2)c2ccccc2[C@H]2OC(c3ccc(OCCCO)cc3)=N[C@@]12Cc1ccccc1", 1.93],
  ["O=C1OCCC/C=C\\[C@H]2OC34C=CCN(Cc5ccccc5)C(=O)[C@H]3N(CCCCCO)C(=O)[C@@H]4C12 (some centres undefined)", 0.65],
  ["CC(C)CNC(=O)[C@@H]1c2ccccc2C(=O)N(C(C)C)[C@H]1c1ccc(CO)cc1", 1.27],
  ["CC(=O)n1cc(C(O)C2C=CC3C(=O)N(c4ccccc4)C(=O)C3N2Nc2ccccc2F)c2ccccc21 (centres undefined)", 0.23],
  ["CC1CC/C=C\\[C@H]2OC34C=CCN(CCN5CCOCC5)C(=O)[C@H]3N(CCCCCCO)C(=O)[C@@H]4C2C(=O)O1 (some centres undefined)", 0.24],
  ["C=CC[C@@]1(C(=O)O)N=C(c2ccc(OCCCO)cc2)O[C@@H]1c1ccccc1CN=[N+]=[N-]", 0.891],
  ["CC(C)C[C@H]1NC(=O)[C@H](Cc2ccccc2)NC(=O)[C@@]23C(=O)N[C@@H](Cc4ccccc4)C2[C@H](C)[C@@]2(C)O[C@H]2C3/C=C/C/C=C\\CNC1=O (some centres undefined)", 0.13],
  ["COC(=O)[C@@]1(Cc2ccccc2)[C@@H]2[C@@H](CC(=O)[C@H]2CC(=O)C(=O)N(C)C)CN1C(=O)c1ccccc1", -0.103],
  ["C=CCC(OC(C)=O)[C@@H]1[C@@H](N(Cc2cc3ccccc3o2)C(=O)c2cccc3ccccc23)c2cc(OCCCO)ccc2N1C(=O)c1ccc2ccccc2c1 (some centres undefined)", 0.935],
  ["COC(=O)C1=CC(CCCO)=CC(c2ccc(CN3CCCC3)cc2)N(Cc2sc3ccccc3c2Cl)C=C1C(=O)OC (centres undefined)", 0.0739],
  ["COCCOC(=O)N1C(=O)[C@@]2(c3cc(C#CCC(C(=O)OC)C(=O)OC)ccc31)[C@H](c1ccc(OCCO)cc1)N1[C@H](c3ccccc3)[C@H](c3ccccc3)OC(=O)[C@H]1[C@@H]2C(=O)N1CCCCCCC1", 0.586]
]}

###

- ASSAY_PROTOCOL: splicing luciferase reporter signal modulators, primary screen, spliceosome inhibition project, cell-based, HEK293, splice +/- reporter (AID 1101);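 note: HEK293 cells carrying a splicing-competent luciferase reporter gene; test concentration not given here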
- TEST_SETTINGS: luminescence, 24 h, higher = more signal, called active from +8 up or from −8 down
Activity calls are given as the source filed them.

{"columns": ["COMPOUND", "z-score"],
 "data": [
  ["COC(=O)[C@@]1(CCS(=O)(=O)c2ccccc2)N=C(c2ccc(OCCCO)cc2)O[C@H]1c1ccccc1N=[N+]=[N-]", "0.177 (inactive)"],
  ["COc1cc(OC)c(C(O)C2C=CC3C(=O)N(c4ccccc4)C(=O)C3N2Nc2ccccc2F)cc1Br (stereo not drawn)", "0.484 (inactive)"],
  ["C=CCOC(=O)[C@@H]1[C@H]2C(=O)O[C@H](c3ccccc3)[C@H](c3ccccc3)N2[C@H](c2ccc(OCCOC(=O)[C@H]3C[C@H]4C(=O)NCC(=O)N4[C@H]3c3ccc(O)cc3)cc2)[C@@]12C(=O)Nc1ccc(I)cc12", "1.14 (inactive)"],
  ["CC(C)CNC(=O)[C@@H]1c2ccccc2C(=O)N(C2Cc3ccccc3C2)[C@H]1c1ccc(CO)cc1", "-0.179 (inactive)"],
  ["C=CC[C@]1(C(=O)OC)N=C(c2ccc(OCCCO)cc2)O[C@H]1c1ccccc1N=[N+]=[N-]", "-1.4 (inactive)"],
  ["CCN(CC)c1ccc(N2CC=CC34O[C@@H]5C=CCOC(=O)[C@@H]5[C@H]3C(=O)N(CCO)[C@@H]4C2=O)cc1 (stereo partly drawn)", "0.0206 (inactive)"],
  ["COCCOC(=O)N1C(=O)[C@@]2(c3cc(C#CCCO)ccc31)[C@H](C(=O)N1CCc3cc(OC)c(OC)cc3C1)[C@H]1C(=O)O[C@H](c3ccccc3)[C@H](c3ccccc3)N1[C@@H]2c1ccccc1OCCO", "-0.961 (inactive)"],
  ["CCOC(=O)C1=CC[C@@H](c2ccccc2)N(S(=O)(=O)C[Si](C)(C)C)[C@H]1c1ccccc1", "-1.02 (inactive)"],
  ["COC(=O)[C@@]1(Cc2ccccc2CN=[N+]=[N-])COC(c2ccc(OCCCO)cc2)=N1", "0.861 (inactive)"],
  ["CCOC(=O)C1=CC[C@@H](c2ccccc2)N(S(=O)(=O)c2ccc(C)cc2)[C@H]1C#N", "0.705 (inactive)"],
  ["O=c1cccc(-c2ccccc2C(F)(F)F)o1", "0.756 (inactive)"],
  ["CC(C)CNC(=O)[C@@]1(C)c2ccccc2C(=O)N(Cc2cc(F)cc(C(F)(F)F)c2)[C@H]1c1ccc(CO)cc1", "0.451 (inactive)"],
  ["CCCCC(O)C1C=CC2C(=O)N(C)C(=O)C2N1Nc1ccccc1 (stereo not drawn)", "0.94 (inactive)"],
  ["CC1(C)OC[C@@]23C=C(Br)[C@@H](C[C@H]12)[C@@]1(CO1)C3=O", "0.0884 (inactive)"],
  ["CN1C(=O)C2C=CC(C(O)c3ccc(-c4ccccc4)s3)N(Nc3ccccc3)C2C1=O (stereo not drawn)", "1.43 (inactive)"],
  ["C#CCN(C/C=C/c1ccccc1)[C@H](CO[Si](C)(C)C(C)(C)C)c1ccccc1", "-0.736 (inactive)"],
  ["C=CCNC(=O)[C@@H]1[C@H]2C(=O)O[C@H](c3ccccc3)[C@H](c3ccccc3)N2[C@H](c2ccc(O)cc2)[C@@]12C(=O)Nc1ccc(C#CC3(O)CCCCCC3)cc12", "0.405 (inactive)"],
  ["CN1C(=O)[C@]2(CCC(=O)OC(C)(C)C)N=C(c3ccc(OCCCO)cc3)O[C@@H]2c2ccccc21", "-0.432 (inactive)"]
]}
